Target: StOASS (O-acetylserine sulfhydrylase) (Salmonella typhimurium, UniProt P0A1E3)
Sequence (P0A1E3 whole entry): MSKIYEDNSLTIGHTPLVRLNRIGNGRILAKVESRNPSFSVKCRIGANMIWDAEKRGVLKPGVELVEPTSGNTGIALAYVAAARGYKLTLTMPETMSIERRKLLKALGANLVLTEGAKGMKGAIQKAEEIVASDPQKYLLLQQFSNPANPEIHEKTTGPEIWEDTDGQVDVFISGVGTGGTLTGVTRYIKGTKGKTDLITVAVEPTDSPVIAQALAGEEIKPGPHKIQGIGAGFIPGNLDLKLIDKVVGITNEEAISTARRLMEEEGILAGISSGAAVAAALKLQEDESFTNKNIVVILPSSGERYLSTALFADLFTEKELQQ
READOUT TYPE: pKd
Value format note: pKd is -log10 of concentration (mol/L); just state the number.

# input Reported pKd, compound CC(=O)OC[C@H](N)C(=O)O [OAS, O-acetylserine] : ____
# output 3.25

* * *

Biological target: StOASS (O-acetylserine sulfhydrylase) (Salmonella typhimurium, UniProt P0A1E3)
Test: PLP fluorescence titration of ligands with StOASS
Format: binding
Design: His tag (N); made in house; host or cells: E. coli BL21(DE3), pET28a(+)
Conditions: from K1,obs and K2,obs of the PLP fluorescence titration; read-out: Kd
pKd: −log10 of the molar value.
pKd listing for selected compounds.

N[C@@H](CS)C(=O)O : ~2.77

# input Reported pKd, compound CSCC[C@H](N)C(=O)O : ____
# output ~2.47

* * *

Target: UniProt:P0A1E3
Test: PLP fluorescence titration of ligands with StOASS
Assay type: binding
Parameters: His tag (N); made in house; host or cells: E. coli BL21(DE3), pET28a(+)
Conditions: pH 9.5, 20 mM Tris, 20 mM NaCl; read-out: Kd (equilibrium dissociation constant)
pKd: −log10 of the molar value.
READOUT TYPE: pKd

# input Reported pKd, compound N[C@@H](CO)C(=O)O : ____
# output ~2.43

* * *

Molecular target: HiOASS (O-acetylserine sulfhydrylase) (Haemophilus influenzae, UniProt P45040)
Sequence (P45040 whole entry): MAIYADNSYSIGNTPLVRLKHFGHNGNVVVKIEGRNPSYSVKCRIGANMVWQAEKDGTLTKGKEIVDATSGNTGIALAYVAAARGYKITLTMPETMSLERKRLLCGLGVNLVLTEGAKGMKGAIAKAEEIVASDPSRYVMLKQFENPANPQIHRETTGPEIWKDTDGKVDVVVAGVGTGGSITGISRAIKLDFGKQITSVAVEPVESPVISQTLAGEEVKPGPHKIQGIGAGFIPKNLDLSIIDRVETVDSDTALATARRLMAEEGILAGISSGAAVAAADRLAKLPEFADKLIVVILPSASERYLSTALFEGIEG
READOUT TYPE: Kd

# input Please provide the recorded Kd for CC(=O)OC[C@H](N)C(=O)O [OAS, O-acetylserine] , tested on HiOASS (O-acetylserine sulfhydrylase) (Haemophilus influenzae, UniProt P45040).
# output ~770 µM

Source of measurements: paper PMC3141655
